Assay: Acute toxicity on mice (LD50, 7 day observation)
Conditions: mouse, in vivo, po; male NMRI mice, intragastral, 7 day observation
Procedure: The determination of the acute toxicity was carried out on male mice (NMRI) with a body weight of from 18 to 23 g. All the experimental animals fasted for 20 hours before commencement of the experiment. Water was available ad libitum. Each dosage grouping contained 4 animals. The dosage sequence was logarithmic. The test compounds were administered intragastrally as suspensions in 1% tragacanth slurry. The volume administered was 20 ml./kg. body weight. […]
Value Type: LD50 at 168 h (mg/kg)

compound="N#CC1=C(SCCN2CCOCC2)NC(=O)C1(c1ccccc1)c1cccs1 (stereo not drawn) [Example 6c]" value_type="LD50 at 168 h" censoring_operator=> value=1600
compound="CN(C)CCSC1=C(C#N)C(c2ccc(N(C)C)cc2)(c2cccnc2)C(=O)N1 (stereo not drawn) [Example 4g]" value_type="LD50 at 168 h" censoring_operator== value=1600
compound="CN(C)c1ccc(C2(c3cccnc3)C(=O)NC(SCCN3CCCCC3)=C2C#N)cc1 (stereo not drawn) [Example 4d]" value_type="LD50 at 168 h" censoring_operator== value=1600
compound="CCN(CC)CCCSC1=C(C#N)C(c2ccc(N(C)C)cc2)(c2cccnc2)C(=O)N1 (stereo not drawn) [Example 4k]" value_type="LD50 at 168 h" censoring_operator== value=300
compound="CN(C)c1ccc(C2(c3cccnc3)C(=O)NC(SCCN3CCCC3)=C2C#N)cc1 (stereo not drawn) [Example 4e]" value_type="LD50 at 168 h" censoring_operator=> value=1600
compound="CN(C)c1ccc(C2(c3cccnc3)C(=O)NC(SCCN3CCOCC3)=C2C#N)cc1 (stereo not drawn) [Example 4b]" value_type="LD50 at 168 h" censoring_operator== value=400
compound="CCN(CC)CCSC1=C(C#N)C(c2ccc(N(C)C)cc2)(c2cccnc2)C(=O)N1 (stereo not drawn) [Example 4a]" value_type="LD50 at 168 h" censoring_operator== value=800
compound="N#CC1=C(SCCN2CCCC2)NC(=O)C1(c1ccccc1)c1cccs1 (stereo not drawn) [Example 6f]" value_type="LD50 at 168 h" censoring_operator=> value=1600
compound="CSC1=C(C#N)C(c2ccc(N(C)C)cc2)(c2cccnc2)C(=O)N1 (stereo not drawn) [Example 4i]" value_type="LD50 at 168 h" censoring_operator=> value=1600

* * *

system: carrageenin oedema in rats; test: Antiphlogistic action against carrageenin oedema in rats; type: in vivo, rats (SIV 50); conditions: 50 mg/kg intragastrally, 3 hours after carrageenin
Value Type: inhibition of the paw volume (%)

molecule="CCN(CC)CCSC1=C(C#N)C(c2ccc(N(C)C)cc2)(c2cccnc2)C(=O)N1 (stereo not shown)" units=% value=59
molecule="CN(C)c1ccc(C2(c3cccnc3)C(=O)NC(SCCN3CCCCC3)=C2C#N)cc1 (stereo not shown)" units=% value=26
molecule="CN(C)c1ccc(C2(c3cccnc3)C(=O)NC(SCCN3CCCC3)=C2C#N)cc1 (stereo not shown)" units=% value=70
molecule="CN(C)CCSC1=C(C#N)C(c2ccc(N(C)C)cc2)(c2cccnc2)C(=O)N1 (stereo not shown)" units=% value=25
